Experiment: DRUGMATRIX: Glutamate, Kainate radioligand binding (ligand: [3H] Kainic acid)
Type: cell membranes, Rattus norvegicus, Wistar, Brain, Membrane
Conditions: Not Active = under 50% inhibition at 10 µM
assay metric: IC50

Examples from the recorded data:
compound=O=c1cc(-c2ccccc2)oc2ccc3ccccc3c12 assay_metric=IC50 reported_value="Not Active"
compound=C[C@H](C(=O)O)c1cccc(C(=O)c2ccccc2)c1 assay_metric=IC50 reported_value="Not Active"
compound=C[C@H]([C@](O)(Cn1cncn1)c1ccc(F)cc1F)S(C)(=O)=O assay_metric=IC50 reported_value="Not Active"
compound=NC[C@H]1O[C@H](O[C@H]2[C@H](O)[C@@H](O[C@H]3O[C@H](CO)[C@@H](O)[C@H](N)[C@H]3O)[C@H](N)C[C@@H]2N)[C@H](O)[C@@H](O)[C@@H]1O assay_metric=IC50 reported_value="Not Active"
compound=C/C=C\c1ccc(O)c(OC)c1 assay_metric=IC50 reported_value="Not Active"

get_value(item= CN(Cc1cnc2nc(N)nc(N)c2n1)c1ccc(C(=O)N[C@@H](CCC(=O)O)C(=O)O)cc1 [METHOTREXATE] , readout=IC50) returns Not Active

* * *

Target: C-C chemokine receptor type 5 (Homo sapiens); also: in other assays of this panel Not Active means under 50% inhibition at 10 µM
Sequence (P51681 whole entry): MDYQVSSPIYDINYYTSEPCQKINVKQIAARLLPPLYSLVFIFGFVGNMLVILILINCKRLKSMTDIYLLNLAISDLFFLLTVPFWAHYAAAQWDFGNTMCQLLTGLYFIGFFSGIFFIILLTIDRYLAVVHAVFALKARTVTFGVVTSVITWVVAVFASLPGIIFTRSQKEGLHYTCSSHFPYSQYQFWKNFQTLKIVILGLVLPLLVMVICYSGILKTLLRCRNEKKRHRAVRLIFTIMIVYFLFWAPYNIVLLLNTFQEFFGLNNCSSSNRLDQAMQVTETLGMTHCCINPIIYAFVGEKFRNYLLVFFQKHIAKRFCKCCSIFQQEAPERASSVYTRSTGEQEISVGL
Assay type: cell membranes, Membrane
Conditions: hek293
assay metric: IC50

Examples from the recorded data:
compound="CC(C(=O)O)c1ccc(CC2CCCC2=O)cc1 (stereo unspecified)" target_system="C-C chemokine receptor type 5 (Homo sapiens)" reported_value="Not Active"
compound="CC(=O)O[C@]1(C(C)=O)CC[C@H]2[C@@H]3C=C(C)C4=CC(=O)CC[C@]4(C)[C@H]3CC[C@@]21C [MEGESTROL ACETATE]" target_system="C-C chemokine receptor type 5 (Homo sapiens)" reported_value="Not Active"
compound="Cc1c(N(C)CS(=O)(=O)[O-])c(=O)n(-c2ccccc2)n1C.[Na+] [DIPYRONE SODIUM]" target_system="C-C chemokine receptor type 5 (Homo sapiens)" reported_value="Not Active"
compound=N[C@@H](Cc1ccc(F)cc1)C(=O)O target_system="C-C chemokine receptor type 5 (Homo sapiens)" reported_value="Not Active"
compound=C[C@@H]1CC[C@H]2[C@@H](C)C(=O)O[C@@H]3O[C@@]4(C)CC[C@@H]1[C@]32OO4 target_system="C-C chemokine receptor type 5 (Homo sapiens)" reported_value="Not Active"
compound="CC[C@@H](CO)NC(=O)[C@@H]1C=C2c3cccc4c3c(cn4C)C[C@H]2N(C)C1 [METHYSERGIDE]" target_system="C-C chemokine receptor type 5 (Homo sapiens)" reported_value="Not Active"

get_value(item= [N-]=[N+]=CC(=O)OC[C@H](N)C(=O)O , readout=IC50) returns Not Active

get_value(item= CC(=O)Nc1nnc(S(N)(=O)=O)s1 [ACETAZOLAMIDE] , readout=IC50) returns Not Active

get_value(item= CCCc1nn(C)c2c(=O)[nH]c(-c3cc(S(=O)(=O)N4CCN(C)CC4)ccc3OCC)nc12 , readout=IC50) returns Not Active

get_value(item= C#CCN(C)[C@H](C)Cc1ccccc1 , readout=IC50) returns Not Active

get_value(item= CC[C@H]1OC(=O)[C@H](C)[C@@H](O[C@H]2C[C@@](C)(OC)[C@@H](O)[C@H](C)O2)[C@H](C)[C@@H](O[C@@H]2O[C@H](C)C[C@H](N(C)C)[C@H]2O)[C@](C)(O)C[C@@H](C)CN(C)[C@H](C)[C@@H](O)[C@]1(C)O , readout=IC50) returns Not Active

get_value(item= COc1cc(C(=O)NS(=O)(=O)c2ccccc2C)ccc1Cc1cn(C)c2ccc(NC(=O)OC3CCCC3)cc12 , readout=IC50) returns Not Active

get_value(item= C#C[C@]1(O)CC[C@H]2[C@@H]3CCC4=Cc5oncc5C[C@]4(C)[C@H]3CC[C@@]21C , readout=IC50) returns Not Active

* * *

Experiment: DRUGMATRIX: Potassium Channel [KATP] radioligand binding (ligand: [3H] Glyburide)
Assay type: cell membranes, Membrane
Conditions: hit-t15; Not Active = under 50% inhibition at 10 µM
assay metric: IC50

Examples from the recorded data:
substance=THIMEROSAL reported_value="Not Active"
substance="INSULIN HUMAN" reported_value="Not Active"
substance="POLYVINYL ALCOHOL" reported_value="Not Active"
substance="COBALT(II) ACETYLACETONATE" reported_value="Not Active"

Kindly consider the entry below.
get_value(item= STANNOUS FLUORIDE , readout=IC50) returns Not Active

* * *

Target: 5-hydroxytryptamine receptor 4 (Cavia porcellus, UniProt O70528); also: in other assays of this panel Not Active means under 50% inhibition at 10 µM
Sequence (O70528 whole entry): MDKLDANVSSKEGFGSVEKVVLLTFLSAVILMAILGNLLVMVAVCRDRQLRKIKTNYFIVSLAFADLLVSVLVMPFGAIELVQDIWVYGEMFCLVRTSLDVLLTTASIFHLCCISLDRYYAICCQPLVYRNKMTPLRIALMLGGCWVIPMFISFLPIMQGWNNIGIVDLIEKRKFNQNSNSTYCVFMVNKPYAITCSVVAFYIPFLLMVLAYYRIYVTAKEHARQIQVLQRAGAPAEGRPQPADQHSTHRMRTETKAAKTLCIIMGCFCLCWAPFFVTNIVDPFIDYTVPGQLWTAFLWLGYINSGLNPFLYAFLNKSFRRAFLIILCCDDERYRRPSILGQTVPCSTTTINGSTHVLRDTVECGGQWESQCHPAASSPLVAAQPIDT
Assay type: cell membranes, Dunkin-Hartley, Striatum, Membrane
assay metric: IC50

smiles_code=NC[C@H]1O[C@H](O[C@H]2[C@H](O)[C@@H](O[C@H]3O[C@H](CO)[C@@H](O)[C@H](N)[C@H]3O)[C@H](N)C[C@@H]2N)[C@H](N)C[C@@H]1O reported_value="Not Active"
smiles_code=N=C(N)N/N=C/c1c(Cl)cccc1Cl reported_value="Not Active"
smiles_code=CO[C@H]1[C@@H](O)[C@H](N)[C@@H](O[C@H]2O[C@H]([C@H](C)N)CC[C@H]2N)[C@H](O)[C@@H]1N(C)C(=O)CN reported_value="Not Active"

* * *

Biological target: Adenosine receptor A3 (Homo sapiens); also: in other assays of this panel Not Active means under 50% inhibition at 10 µM;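 also: radioligand binding assay with AB-MECA serving as the labeled ligand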
Sequence (P0DMS8 whole entry): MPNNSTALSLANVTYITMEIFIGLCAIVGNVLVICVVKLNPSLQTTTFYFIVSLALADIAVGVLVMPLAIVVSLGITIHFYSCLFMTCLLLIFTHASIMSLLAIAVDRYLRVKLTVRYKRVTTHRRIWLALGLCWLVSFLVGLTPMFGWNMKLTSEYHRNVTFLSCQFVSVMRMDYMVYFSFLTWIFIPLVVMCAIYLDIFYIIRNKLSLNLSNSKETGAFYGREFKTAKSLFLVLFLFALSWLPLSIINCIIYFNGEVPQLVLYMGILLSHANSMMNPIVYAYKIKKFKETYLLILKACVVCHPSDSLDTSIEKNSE
Format: cell membranes, CHO-K1, Membrane
Conditions: cho-k1
assay metric: IC50

compound="CC(C)C[C@H]1C(=O)N2CCC[C@H]2[C@]2(O)O[C@](NC(=O)[C@@H]3C=C4c5cccc6[nH]c(Br)c(c56)C[C@H]4N(C)C3)(C(C)C)C(=O)N12 [BROMOCRIPTINE]" target_system="Adenosine receptor A3 (Homo sapiens)" reported_value="Not Active"
compound="CCN[C@@H](C)Cc1cccc(C(F)(F)F)c1 [DEXFENFLURAMINE]" target_system="Adenosine receptor A3 (Homo sapiens)" reported_value="Not Active"
compound="CN[C@@H]1[C@H](O)[C@H](NC)[C@H]2O[C@@]3(O)C(=O)C[C@@H](C)O[C@H]3O[C@@H]2[C@H]1O [SPECTINOMYCIN]" target_system="Adenosine receptor A3 (Homo sapiens)" reported_value="Not Active"
compound="Cc1c(N(C)CS(=O)(=O)[O-])c(=O)n(-c2ccccc2)n1C.[Na+] [DIPYRONE SODIUM]" target_system="Adenosine receptor A3 (Homo sapiens)" reported_value="Not Active"

* * *

Target: D(3) dopamine receptor (Homo sapiens)
Sequence (P35462 whole entry): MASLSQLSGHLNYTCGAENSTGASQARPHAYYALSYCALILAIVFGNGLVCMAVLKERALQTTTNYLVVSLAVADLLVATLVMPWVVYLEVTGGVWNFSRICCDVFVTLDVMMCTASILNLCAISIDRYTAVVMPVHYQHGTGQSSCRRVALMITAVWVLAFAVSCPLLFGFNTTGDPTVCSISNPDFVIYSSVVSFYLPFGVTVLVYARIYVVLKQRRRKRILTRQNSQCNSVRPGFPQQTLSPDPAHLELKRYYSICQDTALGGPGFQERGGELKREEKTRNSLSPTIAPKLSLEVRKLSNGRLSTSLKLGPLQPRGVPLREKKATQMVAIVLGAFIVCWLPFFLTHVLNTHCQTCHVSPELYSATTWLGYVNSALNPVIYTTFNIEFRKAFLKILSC
Assay: DRUGMATRIX: Dopamine D3 radioligand binding (ligand: [3H] Spiperone)
Assay type: cell membranes, CHO, Membrane
Conditions: cho; read-out: IC50
assay metric: IC50 (nM)
The reply should contain only the number, in nM.

get_value(item= THIMEROSAL , readout=IC50) returns 85

* * *

Target: Cytochrome P450 2E1 (Homo sapiens); also: in other assays of this panel Not Active means under 50% inhibition at 10 µM
Sequence (P05181 whole entry): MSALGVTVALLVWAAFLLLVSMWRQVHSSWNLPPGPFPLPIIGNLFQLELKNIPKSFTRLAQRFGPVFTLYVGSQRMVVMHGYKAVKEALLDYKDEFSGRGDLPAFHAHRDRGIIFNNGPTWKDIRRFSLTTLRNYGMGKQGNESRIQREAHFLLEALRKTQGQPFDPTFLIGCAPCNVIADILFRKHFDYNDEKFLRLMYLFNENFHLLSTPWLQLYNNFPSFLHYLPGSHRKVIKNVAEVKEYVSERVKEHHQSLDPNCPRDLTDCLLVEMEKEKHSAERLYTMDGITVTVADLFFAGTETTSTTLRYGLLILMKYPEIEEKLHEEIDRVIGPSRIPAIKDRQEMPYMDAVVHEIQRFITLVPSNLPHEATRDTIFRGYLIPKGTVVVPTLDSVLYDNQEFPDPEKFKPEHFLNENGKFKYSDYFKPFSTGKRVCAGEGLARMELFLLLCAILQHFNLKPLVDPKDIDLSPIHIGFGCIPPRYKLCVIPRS
Details: bti-tn-5b1-4
assay metric: Ki

Examples from the recorded data:
compound="CCC(=O)O[C@H]1[C@H](O[C@@H]2[C@@H](C)[C@H](O[C@H]3C[C@@](C)(OC)[C@@H](O)[C@H](C)O3)[C@@H](C)C(=O)O[C@H](CC)[C@@](C)(O)[C@H](O)[C@@H](C)C(=O)[C@H](C)C[C@@]2(C)O)O[C@H](C)C[C@@H]1N(C)C [ERYTHROMYCIN PROPIONATE]" reported_value="Not Active"
compound=C[C@H](C(=O)O)c1cccc(C(=O)c2ccccc2)c1 reported_value="Not Active"
compound=NC[C@@H]1O[C@H](O[C@H]2[C@@H](O)[C@H](O[C@@H]3[C@@H](O)[C@H](N)C[C@H](N)[C@H]3O[C@H]3O[C@H](CN)[C@@H](O)[C@H](O)[C@H]3N)O[C@@H]2CO)[C@H](N)[C@@H](O)[C@@H]1O reported_value="Not Active"
compound=CCOC(=O)[C@H](CCc1ccccc1)N[C@@H](C)C(=O)N1CCC[C@H]1C(=O)O reported_value="Not Active"
compound="COc1ccccc1OCC(O)COC(N)=O (stereo unspecified)" reported_value="Not Active"

Kindly consider the entry below.
Param item: CC(=O)O[C@]1(C(C)=O)CC[C@H]2[C@@H]3C=C(C)C4=CC(=O)CC[C@]4(C)[C@H]3CC[C@@]21C [MEGESTROL ACETATE] ; param system: Cytochrome P450 2E1 (Homo sapiens); output Ki: Not Active

* * *

Molecular target: Amine oxidase [flavin-containing] A (Homo sapiens)
Sequence (P21397 whole entry): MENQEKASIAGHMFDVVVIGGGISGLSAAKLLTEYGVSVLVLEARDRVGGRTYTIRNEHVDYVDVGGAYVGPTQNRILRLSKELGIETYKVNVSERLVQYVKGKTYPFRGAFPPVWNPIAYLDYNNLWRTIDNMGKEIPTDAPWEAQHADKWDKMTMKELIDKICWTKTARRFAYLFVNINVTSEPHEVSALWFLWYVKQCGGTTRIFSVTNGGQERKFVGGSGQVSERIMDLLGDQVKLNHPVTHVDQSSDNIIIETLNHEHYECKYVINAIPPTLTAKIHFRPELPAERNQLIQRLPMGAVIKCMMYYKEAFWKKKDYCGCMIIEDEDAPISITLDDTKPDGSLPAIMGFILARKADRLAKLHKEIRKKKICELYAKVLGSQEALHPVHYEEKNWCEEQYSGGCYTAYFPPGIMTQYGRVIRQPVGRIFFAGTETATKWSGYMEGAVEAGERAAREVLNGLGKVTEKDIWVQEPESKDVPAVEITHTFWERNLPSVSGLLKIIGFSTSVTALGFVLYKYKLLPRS
Assay: DRUGMATRIX: Monoamine Oxidase MAO-A enzyme inhibition (substrate: Kynuramine)
Design: species or system BTI-TN-5B1-4
Conditions: bti-tn-5b1-4; Not Active = under 50% inhibition at 10 µM
assay metric: IC50

substance="POLYVINYL ALCOHOL" target_system="Amine oxidase [flavin-containing] A (Homo sapiens)" reported_value="Not Active"
substance="INSULIN HUMAN" target_system="Amine oxidase [flavin-containing] A (Homo sapiens)" reported_value="Not Active"
substance=THIMEROSAL target_system="Amine oxidase [flavin-containing] A (Homo sapiens)" reported_value="Not Active"
substance="STANNOUS FLUORIDE" target_system="Amine oxidase [flavin-containing] A (Homo sapiens)" reported_value="Not Active"

get_value(item= COBALT(II) ACETYLACETONATE , readout=IC50) returns Not Active

FYI, the data here is from ChEMBL document CHEMBL1909046.
